These measurements were taken from patent US8841413B2.

Please go through the items and note down their Human GLP-1 R activity (cAMP release), % activity with respect to control.
Target: Human GLP-1 receptor (Homo sapiens)
Construct: The full-length cDNA was cloned in pcDNA3.1(+); expressed in transfected cells
Sequence (P43220 24-463): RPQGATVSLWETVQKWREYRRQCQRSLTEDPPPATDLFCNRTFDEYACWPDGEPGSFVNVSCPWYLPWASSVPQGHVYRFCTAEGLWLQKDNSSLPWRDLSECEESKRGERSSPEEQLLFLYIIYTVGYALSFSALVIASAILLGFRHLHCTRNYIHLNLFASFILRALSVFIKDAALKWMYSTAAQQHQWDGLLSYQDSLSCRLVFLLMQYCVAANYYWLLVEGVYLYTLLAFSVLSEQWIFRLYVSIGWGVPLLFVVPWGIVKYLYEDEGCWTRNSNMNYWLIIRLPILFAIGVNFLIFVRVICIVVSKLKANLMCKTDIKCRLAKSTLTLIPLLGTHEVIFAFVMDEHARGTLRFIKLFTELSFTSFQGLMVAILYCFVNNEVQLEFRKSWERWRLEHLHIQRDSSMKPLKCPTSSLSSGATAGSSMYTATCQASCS
Type: cell-based
Conditions: 100 nM test compound
Please state the figure in %; there is no need to write the unit.

Request the reported Human GLP-1 R activity (cAMP release), % activity with respect to control associated with CCc1cc(OC)ccc1-c1ccc(CC(NC(=O)[C@H](CC(=O)O)NC(=O)[C@H](CO)NC(=O)[C@@H](NC(=O)C(C)(Cc2ccccc2F)NC(=O)[C@@H](NC(=O)CNC(=O)[C@H](CCC(N)=O)NC(=O)C2(NC(=O)[C@@H](N)Cc3c[nH]cn3)CC2)[C@@H](C)O)[C@@H](C)O)C(=O)NC(Cc2ccc(-c3ccccc3C(F)(F)F)cc2)C(N)=O)cc1 (single isomer, unassigned) [compound 36]
99

Bench note: what Human GLP-1 R activity (cAMP release), % activity with respect to control did CCc1cc(OC)ccc1-c1ccc(CC(NC(=O)[C@H](CC(=O)O)NC(=O)[C@H](CO)NC(=O)[C@@H](NC(=O)C(C)(Cc2ccccc2F)NC(=O)[C@@H](NC(=O)CNC(=O)[C@H](CCC(N)=O)NC(=O)C(C)(C)NC(=O)[C@@H](N)Cc2c[nH]cn2)[C@@H](C)O)[C@@H](C)O)C(=O)NC(Cc2ccc(-c3ccccc3C)cc2)C(N)=O)cc1 (single isomer, unassigned) [compound 29] show?
99

Record request: Human GLP-1 R activity (cAMP release), % activity with respect to control value, item CCc1cc(OC)ccc1-c1ccc(CC(NC(=O)[C@H](CC(=O)O)NC(=O)[C@H](CO)NC(=O)[C@@H](NC(=O)C(C)(Cc2ccccc2F)NC(=O)[C@@H](NC(=O)CNC(=O)[C@H](CCC(N)=O)NC(=O)C2(NC(=O)[C@@H](N)Cc3c[nH]cn3)CC2)[C@@H](C)O)[C@@H](C)O)C(=O)NC(Cc2ccc(-c3ccccc3C)cc2)C(N)=O)cc1 (single isomer, unassigned) [compound 33]
99
